Reported inhibition at 110 µM values follow for various compounds
- Tested on: C. elegans
- method: microbe, parasite or virus in culture
- experimental setup: Caenorhabditis elegans, 0 h, read-out: Percentage of motility inhibition 0 h

Worked cases, answers included:
smiles_input=COc1ccc(C(=O)/C=C/c2ccccc2)cc1 result=0%
smiles_input=N[C@@H](Cc1c[nH]c2ccccc12)C(=O)O result=26%
smiles_input=COc1ccc(-c2oc3cc(OC)c(OC)c(O)c3c(=O)c2OC)cc1O result=9%

Note: attention shifts to another entry.
Simply: C[C@H]1[C@H](C)CC[C@]2(C)CC[C@]3(C)C(=CC[C@@H]4[C@@]5(C)CC[C@@H](O)[C@](C)(C(=O)O)[C@@H]5CC[C@]43C)[C@H]12 , C. elegans, inhibition at 110 µM = 32%
